test: High Content Assay for Compounds that inhibit the Assembly of the Perinucleolar Compartment; conditions: PC3M PTB-GFP, PNC prevalence imaging, 16 h; at 10 µM; active compounds read low;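 also: plate controls were DMSO wells for no effect and camptothecin positive control wells for full effect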
About 4,300 (3.1%) of roughly 140,000 compounds were called active. Roughly 21% stayed inconclusive and do not appear here. Shown is part of a subset that was picked to be rich in actives.
Parameter: activity change (PNC), negative = inhibition. Scope: all listed entries.
Express your answer in %, writing the number without its unit.

# count of solved cases: 3
S=C(NCCc1ccccc1)NCC1CCCO1 (centres undefined)	-9.43
O=C(COC(=O)c1c2c(nc3ccccc13)CCCC2)c1ccc(Br)s1	17.9
COc1cc(NC(=O)COC(=O)CSc2ccc3ccccc3c2)c(C)cc1[N+](=O)[O-]	0.296

Ask: Given the entry CSc1ccccc1NC(=O)Cc1ccc(Br)cc1 , report its measured activity change (PNC), negative = inhibition.
Result: 27

Ask: Given the entry COCCn1c(=O)[nH]c(=O)c2cc(C(=O)c3cc(OC)ccc3O)cnc21 , report its measured activity change (PNC), negative = inhibition.
Result: -8.95
